Reported values of pIC50 for individual entries
Biological target: wild type human RORγt LBD (Homo sapiens)
Construct: expressed in transfected cells; host or cells: HEK293T
Sequence (P51449 258-518): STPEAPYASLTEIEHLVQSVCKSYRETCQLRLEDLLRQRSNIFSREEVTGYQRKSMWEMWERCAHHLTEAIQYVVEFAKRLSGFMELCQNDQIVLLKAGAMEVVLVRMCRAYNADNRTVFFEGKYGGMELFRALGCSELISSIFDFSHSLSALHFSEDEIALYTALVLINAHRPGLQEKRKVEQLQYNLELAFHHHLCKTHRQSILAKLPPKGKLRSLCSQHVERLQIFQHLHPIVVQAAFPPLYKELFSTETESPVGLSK
Experiment: RORγt (LBD) Reporter Assay (GAL4-luciferase, HEK293T cells)
Format: cell-based
Conditions: HEK293T cells; value after the comma with ∼, > or < could not be included in the average
pIC50: −log10 of the molar value.
EXPERIMENTAL_READOUT: pIC50

[
  {
    "COMPOUND": "COc1nc2ccc(C(O)(c3ccccc3)C3CCN(C(C)=O)CC3)cc2c(Cl)c1Cc1ccc(-n2cncn2)cc1 (centres unmarked) [Example 18a]",
    "TARGET_DESC": "wild type human RORγt LBD (Homo sapiens)",
    "EXPERIMENTAL_READOUT": "pIC50",
    "INEQUALITY_OPERATOR": "=",
    "MEASURED_VALUE": 7.34
  },
  {
    "COMPOUND": "Cn1cncc1C(O)(c1ccc(C(F)(F)F)nc1)c1ccc2nc(C(F)(F)F)c(Cc3ccccc3)c(Cl)c2c1 (centres unmarked) [Example 105]",
    "TARGET_DESC": "wild type human RORγt LBD (Homo sapiens)",
    "EXPERIMENTAL_READOUT": "pIC50",
    "INEQUALITY_OPERATOR": "<",
    "MEASURED_VALUE": 5.22
  },
  {
    "COMPOUND": "COc1nc2ccc(C(O)(c3cnnn3C)c3cnnn3C)cc2c(Cl)c1Cc1ccc(C(F)(F)F)cc1 [Example 12]",
    "TARGET_DESC": "wild type human RORγt LBD (Homo sapiens)",
    "EXPERIMENTAL_READOUT": "pIC50",
    "INEQUALITY_OPERATOR": "=",
    "MEASURED_VALUE": 8.51
  },
  {
    "COMPOUND": "CC(=O)N1CCC(C(O)(c2ccccc2)c2ccc3nc(Cl)c(Cc4cncnc4)c(OC(F)F)c3c2)CC1 (racemic) [Example 73a]",
    "TARGET_DESC": "wild type human RORγt LBD (Homo sapiens)",
    "EXPERIMENTAL_READOUT": "pIC50",
    "INEQUALITY_OPERATOR": "<",
    "MEASURED_VALUE": 5.22
  },
  {
    "COMPOUND": "CC(=O)N1CCC(C(O)(c2cc(C)c3nc(C#N)c(Cc4ccc(-n5cccn5)cc4)c(C#N)c3c2)c2cncn2C)CC1 (single isomer, unassigned) [Example 81c]",
    "TARGET_DESC": "wild type human RORγt LBD (Homo sapiens)",
    "EXPERIMENTAL_READOUT": "pIC50",
    "INEQUALITY_OPERATOR": "=",
    "MEASURED_VALUE": 6.25
  }
]

All figures here come from patent EP3057951B1.
